Cited source for all entries: patent US20250243286A1

The following binders are shown together with reported Kd values.
# Study target: T1, human ActRIIB (human, UniProt Q13705 19-137, limits assumed)
# T1 construct: antigen in MSD-SET; also called ACVR2B; ActR2B
# T1 sequence: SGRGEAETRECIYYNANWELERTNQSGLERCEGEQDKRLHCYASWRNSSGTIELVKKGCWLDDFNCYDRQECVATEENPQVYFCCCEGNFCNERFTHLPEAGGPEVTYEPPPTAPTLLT
# Experimental details: MSD-SET; human ActRIIB; full-length IgG (Table 4B)

Binder	Unit tag	Kd
Antibody Wurschdsalat (antibody, V domains shown, full-length IgG) VH: QVQLVQSGAEVKKPGASVKVSCKASGYTFTSSYINWVRQAPGQGLEWMGTINAVSGSTSYAQKFQGRVTMTRDESISTAYMELSRLRSDDTAVYYCARGGWFDYWGQGTLVTVSS VL: QSALTQPASVSGSPGQSITISCTGTSSDVGSYNYVNWYQQHPGKAPKLMIYGVSKRESGVSNRFSGSKSGNTASLTISGLQAEDEADYYCGTFAGGKYYGVFGGGTKLTVL	pM	6
Antibody Hefaknöpfla (antibody, V domains shown, full-length IgG) VH: QVQLVQSGAEVKKPGASVKVSCKASGYTFTSSYINWVRQAPGQGLEWMGTINAVSGSTSYAQKFQGRVTMTRDTSISTAYMELSRLRSDDTAVYYCARGGWFDYWGQGTLVTVSS VL: QSALTQPASVSGSPGQSITISCTGTSSDVGSKNYVNWYQQHPGKAPKLMIYGVSKRESGVSNRFSGSKSGNTASLTISGLQAEDEADYYCGTFAGGKYYGVFGGGTKLTVL	pM	5
Antibody Riaba (antibody, V domains shown, full-length IgG) VH: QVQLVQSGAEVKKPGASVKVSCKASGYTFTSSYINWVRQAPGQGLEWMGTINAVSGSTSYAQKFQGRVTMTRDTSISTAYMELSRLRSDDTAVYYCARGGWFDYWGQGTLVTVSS VL: QSALTQPASVSGSPGQSITISCTGTSSDVGSYNYVNWYQQHPGKAPKLMIYGVSKRDSGVSNRFSGSKSGNTASLTISGLQAEDEADYYCGTFAGGKYYGVFGGGTKLTVL	pM	4
Antibody Duuranad (antibody, V domains shown, full-length IgG) VH: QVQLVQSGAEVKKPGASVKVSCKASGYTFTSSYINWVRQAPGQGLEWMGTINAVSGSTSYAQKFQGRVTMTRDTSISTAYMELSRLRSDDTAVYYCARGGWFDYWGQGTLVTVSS VL: QSALTQPASVSGSPGQSITISCTGTSSDVGSFNYVNWYQQHPGKAPKLMIRGVSKRESGVSNRFSGSKSGNTASLTISGLQAEDEADYYCGTFAGGAYYGVFGGGTKLTVL	pM	5
